Item-by-item account of IC50
# tested_system: Human recombinant PDE10A (hPDE10A) (Homo sapiens, UniProt Q9Y233)
# Construct: His tag (inferred from metal chelate purification); made in house; host or cells: Sf9 insect cells (baculovirus)
# Sequence (Q9Y233 267-1055): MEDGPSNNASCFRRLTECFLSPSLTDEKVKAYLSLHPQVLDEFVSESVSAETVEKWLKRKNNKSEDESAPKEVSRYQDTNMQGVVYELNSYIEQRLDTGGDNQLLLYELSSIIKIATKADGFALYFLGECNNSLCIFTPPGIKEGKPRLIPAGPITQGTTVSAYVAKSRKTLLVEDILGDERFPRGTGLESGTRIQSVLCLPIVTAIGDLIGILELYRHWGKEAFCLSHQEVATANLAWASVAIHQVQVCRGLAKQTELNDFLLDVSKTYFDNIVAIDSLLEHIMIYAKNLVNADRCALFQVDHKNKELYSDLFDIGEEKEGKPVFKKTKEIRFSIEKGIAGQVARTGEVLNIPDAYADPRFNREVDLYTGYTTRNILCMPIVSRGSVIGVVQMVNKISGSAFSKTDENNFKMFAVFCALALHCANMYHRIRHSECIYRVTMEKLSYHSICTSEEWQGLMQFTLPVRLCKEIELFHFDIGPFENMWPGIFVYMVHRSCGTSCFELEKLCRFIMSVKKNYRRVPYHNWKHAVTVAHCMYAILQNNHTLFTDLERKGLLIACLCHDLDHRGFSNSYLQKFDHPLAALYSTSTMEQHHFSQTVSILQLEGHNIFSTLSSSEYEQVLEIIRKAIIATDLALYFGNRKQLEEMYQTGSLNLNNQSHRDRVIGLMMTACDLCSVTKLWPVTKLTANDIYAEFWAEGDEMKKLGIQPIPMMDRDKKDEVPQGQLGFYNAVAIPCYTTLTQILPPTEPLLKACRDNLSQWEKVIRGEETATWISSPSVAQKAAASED
# experiment_summary: In vitro assay PDE10A, human clone (SPA, 3H-cAMP hydrolysis)
# Assay type: biochemical
# test_conditions: human clone (h), default; read-out: hPDE10A2 pIC50 (converted)
metric: IC50 (µM)

[[record]]
compound = "CCCC[C@@H]1CCN(C(=O)c2cc(C)nc(C)c2)C[C@H]1c1cc(C(F)F)nc2ncnn12 (single isomer, unassigned) [Compound 45]"
metric = "IC50"
modifier_sign = ">"
recorded_value = 10

[[record]]
compound = "C[C@@H]1CCN(C(=O)c2cccnc2F)C[C@H]1c1cc(C(F)F)nc2ncnn12"
metric = "IC50"
modifier_sign = "="
recorded_value = 3.24

[[record]]
compound = "Cc1cnc(C(=O)N2CC[C@@H](C)[C@H](c3cc(C(F)F)nc4ncnn34)C2)cn1"
metric = "IC50"
modifier_sign = ">"
recorded_value = 10

[[record]]
compound = "Cc1c(C(=O)N2CC[C@@H](C)[C@H](c3cc(C(F)F)nc4ncnn34)C2)ccnc1Cl"
metric = "IC50"
modifier_sign = "="
recorded_value = 3.24

[[record]]
compound = "C[C@@H]1CCN(C(=O)c2ccnnc2)C[C@H]1c1cc(C(F)F)nc2ncnn12"
metric = "IC50"
modifier_sign = "="
recorded_value = 10.5

[[record]]
compound = "C[C@@H]1CCN(C(=O)c2cc(Cl)cnc2C(F)(F)F)C[C@H]1c1cc(C(F)F)nc2ncnn12"
metric = "IC50"
modifier_sign = "="
recorded_value = 3.09

[[record]]
compound = "COc1ccc2c(c1)cc(C(=O)N1CC[C@@H](C)[C@H](c3cc(C(F)F)nc4ncnn34)C1)n2C"
metric = "IC50"
modifier_sign = "="
recorded_value = 0.0324

